Type: physicochemical
Settings: 40° C. and 75% RH, day 14
Structures can show the parent of a compound that is named as a salt.
measuredParameter: XRPD

Name the reported XRPD value associated with the compound COc1cccc2[nH]c3c4c(c5c(c3c12)C(=O)N(CN1CCN(C)CC1)C5=O)CCC4 [L-Malate Salt, Form A1]
No change

What XRPD value was documented for this compound, COc1cccc2[nH]c3c4c(c5c(c3c12)C(=O)N(CN1CCN(C)CC1)C5=O)CCC4 [Glycolate Salt Hydrate, Form A1] ?
No change

What measured XRPD goes with COc1cccc2[nH]c3c4c(c5c(c3c12)C(=O)N(CN1CCN(C)CC1)C5=O)CCC4.O=C1CC[C@@H](C(=O)O)N1 ?
No change
